These data points were gathered from the C3SDB collision cross section collection.

- applied_conditions: [M+H]+; instrument: TW; calibrated with polyalanine and drug standards

| compound | collision cross section (N2) (Å²) |
| --- | --- |
| C[C@@H]1CC[C@@]2(NC1)O[C@H]1C[C@H]3[C@@H]4CC=C5C[C@@H](O)CC[C@]5(C)[C@H]4CC[C@]3(C)[C@H]1[C@@H]2C | 207.8 |
| CC(=O)O[C@@H]1CC[C@@]2(C)C(C[C@@H](OC(C)=O)[C@@]3(C)C4=CC(=O)O[C@@H](c5ccoc5)[C@]4(C)CCC23)C1(C)C (stereo partly drawn) [3alpha-ACETOXYDIHYDRODEOXYGEDUNIN] | 218 |
| COc1c2occc2cc2ccc(=O)oc12 | 139.9 |
| COc1ccc(CC(=O)c2ccc(O)cc2O)cc1 | 157.4 |
| CC1(C)C2C[C@@H](O)[C@]3(C)C(CC[C@@]4(C)[C@H](c5ccoc5)OC(=O)[C@H]5O[C@]543)[C@@]2(C)[C@@H](O)C[C@H]1O (some centres not stated) | 201.5 |
| c1ccc(-c2ccc(C(c3ccccc3)n3ccnc3)cc2)cc1 (configuration not stated) | 184.8 |
| CN(Cc1cnc2nc(N)nc(N)c2n1)c1ccc(C(=O)N[C@@H](CCC(=O)O)C(=O)O)cc1 [METHOTREXATE] | 194.8 |
